B1: Elongation factor 1-alpha (Aeropyrum pernix (strain ATCC 700893 / DSM 11879 / JCM 9820 / NBRC 100138 / K1)), Q9YAV0 (parent)
chain: MAEKPHMNLVVIGHVDHGKSTLVGHLLYRLGYIEEKKLKELEEQAKSRGKESFKFAWILDKMKEERERGITIDLTFMKFETKKYVFTIIDAPGHRDFVKNMITGASQADAAILVVSARKGEFEAGMSTEGQTREHLLLARTMGIEQIIVAVNKMDAPDVNYDQKRYEFVVSVLKKFMKGLGYQVDKIPFIPVSAWKGDNLIERSPNMPWYNGPTLVEALDQLQPPAKPVDKPLRIPVQNVYSIPGAGTVPVGRVETGVLRVGDKVVFMPPGVVGEVRSIEMHYQQLQQAEPGDNIGFAVRGVSKSDIKRGDVAGHLDKPPTVAEEFEARIFVIWHPSAITVGYTPVIHVHTASVSSRIIEIKAKLDPKTGQVVEQNPQFLKAGDAAIVRFKPVKPLVVEKFSEIPQLGRFAMRDMNRTVGIGIVTDVKPAKVDIKAK
partner: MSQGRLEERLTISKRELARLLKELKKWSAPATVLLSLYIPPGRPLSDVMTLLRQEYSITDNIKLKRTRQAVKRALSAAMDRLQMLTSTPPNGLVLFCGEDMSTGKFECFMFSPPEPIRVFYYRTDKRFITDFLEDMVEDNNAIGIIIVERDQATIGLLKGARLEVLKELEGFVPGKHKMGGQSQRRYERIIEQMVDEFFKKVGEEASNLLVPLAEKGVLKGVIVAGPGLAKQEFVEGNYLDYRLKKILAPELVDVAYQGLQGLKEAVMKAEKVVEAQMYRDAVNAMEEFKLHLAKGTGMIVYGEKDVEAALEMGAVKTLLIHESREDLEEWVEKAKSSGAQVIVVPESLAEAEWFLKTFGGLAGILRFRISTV

variants of: B1; conditions: with rf1_aerpe prf1, Q9YAF1
test readout: effect of a mutation on the interaction

Guide cases for effect of a mutation on the interaction, answers given:
>>> print(df.to_string())
   changes                  result
0     E64A  disrupting interaction
1     E65A  decreasing interaction
2     D73A  decreasing interaction
3    S337A  disrupting interaction
4    A338S  disrupting interaction

Lab note: next variant to report on.
INPUT: Name the recorded effect of a mutation on the interaction of the item F379A in your answer.
OUTPUT: disrupting interaction
